This section presents compounds with their documented MIC values.
tested on: Aspergillus fumigatus; experiment: Antimicrobial activity against Aspergillus fumigatus after 48 hrs by broth microdilution technique; type: functional
metricName: MIC (µg/mL)

{"compound": "CC(=O)Oc1cc(C(=O)O)cc(OC(C)=O)c1OC(C)=O", "metricName": "MIC", "censoringSign": ">", "reportedValue": 250}
{"compound": "CCCCCCCCOC(=O)c1cc(O)c(O)c(O)c1 [OCTYL_GALLATE]", "metricName": "MIC", "censoringSign": "=", "reportedValue": 62.5}
{"compound": "CCCCCCCCCOC(=O)c1cc(O)c(O)c(O)c1 [NONYL GALLATE]", "metricName": "MIC", "censoringSign": "=", "reportedValue": 62.5}
{"compound": "COC(=O)c1cc(O)c(O)c(O)c1", "metricName": "MIC", "censoringSign": ">", "reportedValue": 250}
{"compound": "CCCCCOC(=O)c1cc(O)c(O)c(O)c1 [PENTYL GALLATE]", "metricName": "MIC", "censoringSign": ">", "reportedValue": 250}

* * *

assay: Lipophilicity, log P of the compound; format: physicochemical; conditions: octanol/water
metricName: logP

{"compound": "CCCCCCCCOC(=O)c1cc(O)c(O)c(O)c1 [OCTYL_GALLATE]", "metricName": "logP", "reportedValue": 3.7}
{"compound": "CCCCCCCCCOC(=O)c1cc(O)c(O)c(O)c1 [NONYL GALLATE]", "metricName": "logP", "reportedValue": 3.7}

* * *

system: Aspergillus fumigatus; assay: Antimicrobial activity against Aspergillus fumigatus after 48 hrs by broth microdilution technique; format: functional
Reported MIC values follow for various molecules

{"molecule": "CCCCCCCCCCOC(=O)c1cc(O)c(O)c(O)c1 [DECYL GALLATE]", "MIC": "100 µg/mL"}
{"molecule": "CCCCCCCCCCCCCCCCCCOC(=O)c1cc(O)c(O)c(O)c1 [OCTADECYL GALLATE]", "MIC": "> 250 µg/mL"}
{"molecule": "CCOC(=O)c1cc(OC)c(OC)c(OC)c1 [ETHYLTRIMETHOXY BENZOATE]", "MIC": "> 250 µg/mL"}
{"molecule": "CCCOC(=O)c1cc(O)c(O)c(O)c1 [PROPYL GALLATE]", "MIC": "> 250 µg/mL"}
{"molecule": "COc1cc(C(=O)O)cc(OC)c1OC", "MIC": "> 250 µg/mL"}
{"molecule": "CC(=O)N1CCN(c2ccc(OCC3COC(Cn4ccnc4)(c4ccc(Cl)cc4Cl)O3)cc2)CC1 (centres undefined)", "MIC": "0.78 µg/mL"}
{"molecule": "CCCCCCCOC(=O)c1cc(O)c(O)c(O)c1 [HEPTYL GALLATE]", "MIC": "100 µg/mL"}
{"molecule": "O=C(O)c1cc(O)c(O)c(O)c1", "MIC": "> 250 µg/mL"}
{"molecule": "CCCCCCCCCCCCCCCCOC(=O)c1cc(O)c(O)c(O)c1 [HEXADECYL GALLATE]", "MIC": "> 250 µg/mL"}

* * *

system: Aspergillus flavus; test: Antimicrobial activity against Aspergillus flavus after 48 hrs by broth microdilution technique; format: functional

{"compound": "Oc1cccc(O)c1O [PYROGALLOL]", "MIC": "> 250 µg/mL"}
{"compound": "O=C(O)c1cc(O)c(O)c(O)c1 [GALLIC ACID]", "MIC": "> 250 µg/mL"}
{"compound": "CCCOC(=O)c1cc(O)c(O)c(O)c1 [PROPYL GALLATE]", "MIC": "> 250 µg/mL"}
{"compound": "CCCCCCCCOC(=O)c1cc(O)c(O)c(O)c1 [OCTYL_GALLATE]", "MIC": "62.5 µg/mL"}
{"compound": "CCCCCCCCCCCCOC(=O)c1cc(O)c(O)c(O)c1 [DODECYL GALLATE]", "MIC": "> 250 µg/mL"}
{"compound": "CC(=O)N1CCN(c2ccc(OCC3COC(Cn4ccnc4)(c4ccc(Cl)cc4Cl)O3)cc2)CC1 (stereo not given) [KETOCONAZOLE]", "MIC": "0.78 µg/mL"}
{"compound": "CCCCCOC(=O)c1cc(O)c(O)c(O)c1 [PENTYL GALLATE]", "MIC": "> 250 µg/mL"}
{"compound": "CCCCCCOC(=O)c1cc(O)c(O)c(O)c1 [HEXYL GALLATE]", "MIC": "> 250 µg/mL"}
{"compound": "CCCCCCCCCOC(=O)c1cc(O)c(O)c(O)c1 [NONYL GALLATE]", "MIC": "62.5 µg/mL"}
{"compound": "COC(=O)c1cc(O)c(O)c(O)c1 [GALLIC ACID METHYL ESTER]", "MIC": "> 250 µg/mL"}
